Hi there, I'd appreciate the recorded IC (TGI) for every entry that follows.
system: SF-295 (CNS cancer); assay: NCI-60 screen (SRB, 48 h); details: Homo sapiens, SF-295, 48 h, read-out: TGI
Dear colleague, please return just the value in µM, with no unit written.

Task item: # input compound: CC(C)=C1CCC=C2CC[C@]3(C)[C@H](CC[C@@H]4[C@@]5(C)CCCNC(C)(C)[C@@H]5CC[C@]43C)[C@H]21 [Compound 9] ; wanted: its IC (TGI)
Reply: 3.42

Task item: Also need C=C(C)C1CCC2(CO)CCC3(C)C(CCC4C5(C)CCCNC(C)(C)C5CCC43C)C12 (centres unmarked) [Compound 1, Azepanobetulin] , thanks.
Reply: 3.13

Task item: Also need C=C(C)[C@@H]1CC[C@]2(COS(=O)(=O)c3ccc(C)cc3)CC[C@]3(C)[C@@H](CC[C@@H]4[C@@]5(C)CCCNC(C)(C)[C@@H]5CC[C@]43C)[C@@H]12 [Compound 12] , thanks.
Reply: 3.01

Task item: Also need C=C(C)[C@@H]1CC[C@]2(C(=O)N[C@H](CO)Cc3ccccc3)CC[C@]3(C)[C@H](CC[C@@H]4[C@@]5(C)CCCNC(C)(C)[C@@H]5CC[C@]43C)[C@@H]12 [Compound 11] , thanks.
Reply: 3.21

Task item: Also need C=C(C)[C@@H]1CC[C@]2(C)[C@H](C=CC3=C4C[C@@](C)(CO)CC[C@]4(C)CC[C@]32C)[C@@]1(C)CCCN [Compound 20] , thanks.
Reply: 3.21

Task item: Also need C=C(C)[C@@H]1CC[C@]2(C)[C@H](CC=C3[C@@H]4[C@@H](C)[C@H](C)CC[C@]4(CO)CC[C@]32C)[C@@]1(C)CCCN [Compound 19] , thanks.
Reply: 1.58

Task item: Also need CC1(C)NCCC[C@]2(C)[C@H]3C=CC4=C5C[C@@](C)(CO)CC[C@]5(C)CC[C@@]4(C)[C@]3(C)CC[C@@H]12 [Compound 6, azepano-glycyrrhetol-diene] , thanks.
Reply: 4.04

Task item: Also need C=C(C)[C@@H]1CCC=C2CC[C@]3(C)[C@H](CC[C@@H]4[C@@]5(C)CCCNC(C)(C)[C@@H]5CC[C@]43C)[C@H]21 [Compound 8] , thanks.
Reply: 3.26

Task item: Also need C[C@H]1[C@H](C)CC[C@]2(CO)CC[C@]3(C)C(=CC[C@@H]4[C@@]5(C)CCCNC(C)(C)[C@@H]5CC[C@]43C)[C@H]12 [Compound 4, azepanouvaol] , thanks.
Reply: 3.06

Task item: Also need CC1(C)CC[C@]2(CO)CC[C@]3(C)C(=CC[C@@H]4[C@@]5(C)CCCNC(C)(C)[C@@H]5CC[C@]43C)[C@@H]2C1 [Compound 3, azepanoerythrodiol] , thanks.
Reply: 3.62

Task item: Also need CC1(C)CC[C@]23CC[C@]4(C)[C@H](CC[C@@H]5[C@@]6(C)CCCNC(C)(C)[C@@H]6CC[C@]54C)[C@H]2[C@H]1OC3 [Compound 7, Azepanoallobetulin] , thanks.
Reply: 3.19

---

system: SF-295 (CNS cancer); assay: NCI-60 screen (SRB, 48 h); conditions: Homo sapiens, SF-295
QUANTITY_KIND: GI50 (µM)
Dear colleague, please return just the value in µM, with no unit written.

Task item: # input compound: C=C(C)C1CCC2(CO)CCC3(C)C(CCC4C5(C)CCCNC(C)(C)C5CCC43C)C12 (stereo not drawn) [Compound 1, Azepanobetulin] ; wanted: its GI50
Reply: 1.66

Task item: Also need C=C(C)[C@@H]1CC[C@]2(C)[C@H](C=CC3=C4C[C@@](C)(CO)CC[C@]4(C)CC[C@]32C)[C@@]1(C)CCCN [Compound 20] , thanks.
Reply: 1.78

Task item: Also need Cc1ccc(S(=O)(=O)OC[C@]23CCC(C)(C)C[C@H]2C2=CC[C@@H]4[C@@]5(C)CCCNC(C)(C)[C@@H]5CC[C@@]4(C)[C@]2(C)CC3)cc1 [Compound 15] , thanks.
Reply: 1.71

---

system: 786-0 (Renal cancer); assay: NCI-60 screen (SRB, 48 h); details: Homo sapiens, 786-0, read-out: LC50
QUANTITY_KIND: CC50 (µM)
Dear colleague, please return just the value in µM, with no unit written.

Task item: # input molecule: C[C@H]1[C@H](C)CC[C@]2(CO)CC[C@]3(C)C(=CC[C@@H]4[C@@]5(C)CCCNC(C)(C)[C@@H]5CC[C@]43C)[C@H]12 ; wanted: its CC50
Reply: 5.85

Task item: Also need CC1(C)NCCC[C@]2(C)[C@H]3C=CC4=C5C[C@@](C)(CO)CC[C@]5(C)CC[C@@]4(C)[C@]3(C)CC[C@@H]12 , thanks.
Reply: 40.9

Task item: Also need CC1(C)CC[C@]2(CO)CC[C@]3(C)C(=CC[C@@H]4[C@@]5(C)CCCNC(C)(C)[C@@H]5CC[C@]43C)[C@@H]2C1 , thanks.
Reply: 12.7

---

test system: A498 (Renal cancer); assay: NCI-60 screen (SRB, 48 h); settings: Homo sapiens, A498, read-out: LC50
Hi there, I'd appreciate the recorded log10 of CC50 for every entry that follows.
A difference of one corresponds to tenfold CC50; all values are log10 with CC50 in µM.

Task item: # input molecule: CC1(C)CC[C@]2(CO)CC[C@]3(C)C(=CC[C@@H]4[C@@]5(C)CCCNC(C)(C)[C@@H]5CC[C@]43C)[C@@H]2C1 [Compound 3, azepanoerythrodiol] ; wanted: its log10 of CC50
Reply: 1.94

Task item: Also need C=C(C)[C@@H]1CC[C@]2(COS(=O)(=O)c3ccc(C)cc3)CC[C@]3(C)[C@@H](CC[C@@H]4[C@@]5(C)CCCNC(C)(C)[C@@H]5CC[C@]43C)[C@@H]12 [Compound 12] , thanks.
Reply: 0.78

Task item: Also need C[C@H]1[C@H](C)CC[C@]2(C(=O)Nc3ccc4ncccc4c3)CC[C@]3(C)C(=CC[C@@H]4[C@@]5(C)CCCNC(C)(C)[C@@H]5CC[C@]43C)[C@H]12 [Compound 14] , thanks.
Reply: 0.75

Task item: Also need C=C(C)[C@@H]1CC[C@]2(C)[C@H](CC=C3[C@@H]4[C@@H](C)[C@H](C)CC[C@]4(CO)CC[C@]32C)[C@@]1(C)CCCN [Compound 19] , thanks.
Reply: 1.44

Task item: Also need CC1(C)NCCC[C@]2(C)[C@H]3C=CC4=C5C[C@@](C)(CO)CC[C@]5(C)CC[C@@]4(C)[C@]3(C)CC[C@@H]12 [Compound 6, azepano-glycyrrhetol-diene] , thanks.
Reply: 1.72

---

system: SK-MEL-28 (Melanoma)
QUANTITY_KIND: GI50 (nM)
Dear colleague, please return just the value in nM, with no unit written.

Task item: # input compound: C=C(C)[C@@H]1CC[C@]2(C)[C@H](CC=C3[C@@H]4[C@@H](C)[C@H](C)CC[C@]4(CO)CC[C@]32C)[C@@]1(C)CCCN [Compound 19] ; wanted: its GI50
Reply: 950

Task item: Also need C=C(C)[C@@H]1CC[C@]2(COS(=O)(=O)c3ccc(C)cc3)CC[C@]3(C)[C@@H](CC[C@@H]4[C@@]5(C)CCCNC(C)(C)[C@@H]5CC[C@]43C)[C@@H]12 [Compound 12] , thanks.
Reply: 2150

Task item: Also need CC1(C)CC[C@]2(CO)CC[C@]3(C)C(=CC[C@@H]4[C@@]5(C)CCCNC(C)(C)[C@@H]5CC[C@]43C)[C@@H]2C1 [Compound 3, azepanoerythrodiol] , thanks.
Reply: 1700

Task item: Also need C=C(C)[C@@H]1CCC=C2CC[C@]3(C)[C@H](CC[C@@H]4[C@@]5(C)CCCNC(C)(C)[C@@H]5CC[C@]43C)[C@H]21 [Compound 8] , thanks.
Reply: 1810

Task item: Also need CC(C)=C1CCC=C2CC[C@]3(C)[C@H](CC[C@@H]4[C@@]5(C)CCCNC(C)(C)[C@@H]5CC[C@]43C)[C@H]21 [Compound 9] , thanks.
Reply: 1810

Task item: Also need C=C(C)[C@@H]1CC[C@]2(C)[C@H](C=CC3=C4C[C@@](C)(CO)CC[C@]4(C)CC[C@]32C)[C@@]1(C)CCCN [Compound 20] , thanks.
Reply: 1820

---

test system: panel of approximately 60 cancer cell lines; experiment: NCI-60 screen (SRB, 48 h), full panel; conditions: 1 dose 10 µM
QUANTITY_KIND: Positive Cytotoxic Effect (cell lines with percent growth < 0 / total)

Task item: # input compound: C=C(C)[C@@H]1CC[C@]2(C)[C@H](C=CC3=C4C[C@@](C)(CO)CC[C@]4(C)CC[C@]32C)[C@@]1(C)CCCN [Compound 20] ; wanted: its Positive Cytotoxic Effect (cell lines with percent growth < 0 / total)
Reply: 46/60

Task item: Also need CC1(C)NCCC[C@]2(C)[C@H]3C=CC4=C5C[C@@](C)(CO)CC[C@]5(C)CC[C@@]4(C)[C@]3(C)CC[C@@H]12 [Compound 6, azepano-glycyrrhetol-diene] , thanks.
Reply: 59/59

Task item: Also need CC1(C)CC[C@]2(CO)CC[C@]3(C)C(=CC[C@@H]4[C@@]5(C)CCCNC(C)(C)[C@@H]5CC[C@]43C)[C@@H]2C1 [Compound 3, azepanoerythrodiol] , thanks.
Reply: 19/57

Source of measurements: paper PMC7914897
